Assignment: determine reported pIC50 for the given compounds.
Assay Target: Envelope glycoprotein gp160 (Human immunodeficiency virus 1)
Sequence (Q6QLK5 whole entry, the tested form may be a part): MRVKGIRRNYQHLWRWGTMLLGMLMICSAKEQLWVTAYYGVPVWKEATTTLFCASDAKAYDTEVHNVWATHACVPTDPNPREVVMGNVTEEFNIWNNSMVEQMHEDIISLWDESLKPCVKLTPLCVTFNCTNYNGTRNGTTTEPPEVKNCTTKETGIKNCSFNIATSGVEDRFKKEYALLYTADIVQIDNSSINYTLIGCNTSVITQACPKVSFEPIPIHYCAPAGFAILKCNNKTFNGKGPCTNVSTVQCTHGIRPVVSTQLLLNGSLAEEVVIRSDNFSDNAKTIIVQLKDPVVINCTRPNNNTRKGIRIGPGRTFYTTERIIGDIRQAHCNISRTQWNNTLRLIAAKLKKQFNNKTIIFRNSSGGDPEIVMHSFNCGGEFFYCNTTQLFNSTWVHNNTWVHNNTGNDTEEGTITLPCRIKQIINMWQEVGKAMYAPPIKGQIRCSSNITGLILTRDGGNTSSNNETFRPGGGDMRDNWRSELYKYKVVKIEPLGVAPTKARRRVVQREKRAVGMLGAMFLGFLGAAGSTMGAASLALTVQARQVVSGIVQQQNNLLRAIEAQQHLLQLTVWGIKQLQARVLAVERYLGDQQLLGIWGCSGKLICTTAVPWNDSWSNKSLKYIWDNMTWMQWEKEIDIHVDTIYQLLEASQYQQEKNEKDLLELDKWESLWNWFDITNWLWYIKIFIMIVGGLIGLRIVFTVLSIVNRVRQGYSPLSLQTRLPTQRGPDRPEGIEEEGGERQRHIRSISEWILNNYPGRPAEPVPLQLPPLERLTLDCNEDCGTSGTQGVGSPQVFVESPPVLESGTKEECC
Experimental Protocol: HIV fusion inhibitor analogs, peptide binding, SAR follow-up, biochemical, fluorescence quenching (AID 434967)
Give bare numbers, as −log10 of the molar value.

{"columns": ["Compound", "Readout Label", "Value Observed"],
 "data": [
  ["CC(C)NC(=O)c1sc(=S)n2c1[nH]c(=O)c1ccc(C(=O)NCCc3ccc(Cl)cc3)cc12", "pIC50", 5.02],
  ["COC(=O)c1sc(-c2ccc(C(C)(C)C)cc2)cc1NC(=O)c1ccccc1C(=O)O", "pIC50", 5.23],
  ["CC1(C)CC(=O)C2=C(C1)c1c(ccc3ccccc13)NC2c1cc([N+](=O)[O-])cc([N+](=O)[O-])c1O (stereo unspecified)", "pIC50", 4.87],
  ["CS(=O)(=O)C1=NSC2=NC(=O)/C(=C\\c3ccc(OS(=O)(=O)c4ccccc4)cc3)C(=N)N21", "pIC50", 5.11],
  ["O=C(O)c1ccccc1C(=O)N(Cc1cccc(Oc2ccc(Cl)cc2)c1)[C@H]1CCCc2ccccc21", "pIC50", 5.59]
]}

Record pIC50 for all entries; do not skip any.
1. O=C1NC(=S)N(C2CCCCC2)C(=O)C1=CNNC(=O)c1ccccc1O
2. CC(C)S(=O)(=O)C1=NSC2=NC(=O)/C(=C\c3ccc(-c4cccc(C(=O)O)c4)o3)C(=N)N21
3. CCS(=O)(=O)C1=NSC2=NC(=O)/C(=C\c3ccc(OS(=O)(=O)c4ccccc4)cc3)C(=N)N21
4. Cc1c(Cl)cccc1NS(=O)(=O)c1ccc2c(c1)C1C=CCC1C(c1ccc(C(=O)O)cc1)N2 (stereo unspecified)
5. CCC(C)(C)C1CCc2c(sc(NC(=O)c3ccccc3C(=O)O)c2C#N)C1 (stereo unspecified)
6. COc1cc(/C=C2\SC(=O)N(c3ccccc3Cl)C2=O)cc([N+](=O)[O-])c1O

## Result
1: 5.05; 2: 5.35; 3: 4.94; 4: 5.50; 5: 5.21; 6: 5.04

----------
Assay Target: Envelope glycoprotein gp160 (Human immunodeficiency virus 1)
Experimental Protocol: HIV fusion inhibitor analogs, peptide binding, SAR follow-up, biochemical, fluorescence quenching (AID 434967)
Parameter class (string): assigned from measured IC50. Ranges: I = under 6 µM, II = from 6 µM up to 10 µM, III = 10 µM and over

Here are 3 compounds together with their reported answers.
{"columns": ["Compound", "Qualitative Label"],
 "data": [
  ["O=C1NC(=S)N(c2ccc(F)cc2)C(=O)C1=Cc1ccoc1 [SMR000270574]", "II"],
  ["O=C(O)c1cc(N=NCc2ccc(-c3ccccc3)cc2)ccc1Cl [MLS-0319671.0001]", "III"],
  ["O=C1Nc2ccc([N+](=O)[O-])cc2C1=NNc1ccccc1C(=O)O", "III"]
]}

## Task Place this compound in its band: "CS(=O)(=O)C1=NSC2=NC(=O)/C(=C\c3cccn3-c3ccc(Cl)cc3)C(=N)N21"
## Result I

## Task Try the compound "Cc1ccc(S(=O)(=O)Oc2ccc(/C=C3/C(=N)N4C(=NC3=O)SN=C4S(C)(=O)=O)cc2)cc1"
## Result II

----------
Assignment: determine reported pIC50 for the given molecules.
Assay Target: UniProt:Q6QLK5
Experimental Protocol: HIV fusion inhibitor analogs, peptide binding, SAR follow-up, biochemical, fluorescence quenching (AID 434967)
Numbers only, as −log10 of the molar value.

Example molecules with recorded pIC50:
{"columns": ["Molecule", "Assay Target", "pIC50"],
 "data": [
  ["COc1cc(CN=Nc2ccc(Cl)c(C(=O)O)c2)ccc1OC(=O)c1ccc(F)cc1", "UniProt:Q6QLK5", 5.10],
  ["CCOC(=O)C1=C(C)N=c2sc(=Cc3ccc(OCC(=O)O)cc3)c(=O)n2C1c1ccc(OC(C)C)cc1 (centres undefined)", "UniProt:Q6QLK5", 5.18],
  ["O=[N+]([O-])c1cc([N+](=O)[O-])c2oc(-c3ccccc3)c(Br)c2c1O", "UniProt:Q6QLK5", 4.84]
]}

Record pIC50 for all entries; do not skip any.
1. COc1ccc(C(=O)Oc2ccc(CN=Nc3ccc(Cl)c(C(=O)O)c3)cc2OC)cc1 [SMR000589907]
2. Cc1c2c(=O)n(-c3nc4ccccc4s3)[nH]c2cc(=O)n1Cc1ccccc1 [MLS000762993]

## Result
[5.29, 5.00]

Record pIC50 for all entries; do not skip any.
1. COc1cc(CN=Nc2ccc(Cl)c(C(=O)O)c2)ccc1OC(=O)c1ccccc1F [SMR000589905]
2. CCOc1cc(/C=C2\SC(=O)N(CC(=O)Nc3ccccc3F)C2=O)cc([N+](=O)[O-])c1O
3. Cc1cc(C)cc(-n2cccc2/C=C2/C(=N)N3C(=NC2=O)SN=C3S(C)(=O)=O)c1
4. CCOC(=O)c1sc(N2C(=O)C(=O)C(C(=O)c3ccc(C)o3)C2c2cccc([N+](=O)[O-])c2)nc1C (centres undefined)

## Result
1. 4.59
2. 5.36
3. 5.11
4. 4.98

----------
Assignment: determine reported pIC50 for the given molecules.
Assay Target: Envelope glycoprotein gp160 (Human immunodeficiency virus 1)
Experimental Protocol: HIV fusion inhibitor analogs, peptide binding, SAR follow-up, biochemical, fluorescence quenching (AID 434967)
Numbers only, as −log10 of the molar value.

Example molecules with recorded pIC50:
{"columns": ["Molecule", "Assay Target", "pIC50"],
 "data": [
  ["COc1ccc(OC)c(N2C(=O)C(=Cc3ccco3)C(=O)NC2=S)c1", "Envelope glycoprotein gp160 (Human immunodeficiency virus 1)", 5.22],
  ["CSc1nnc(-c2ccccc2N=Cc2c(C)[nH]n(-c3ccc4ccccc4c3)c2=O)c(=O)[nH]1", "Envelope glycoprotein gp160 (Human immunodeficiency virus 1)", 5.01],
  ["CC(C)S(=O)(=O)C1=NSC2=NC(=O)/C(=C\\c3ccc(-c4ccccc4)o3)C(=N)N21", "Envelope glycoprotein gp160 (Human immunodeficiency virus 1)", 5.02],
  ["N#C/C(=C\\C1C=CC(=O)C([N+](=O)[O-])=C1)c1nc2ccccc2s1 (stereo not drawn)", "Envelope glycoprotein gp160 (Human immunodeficiency virus 1)", 5.20],
  ["Cc1ccc(-n2c(O)c(C=Nc3ccccc3-c3n[nH]c(=S)[nH]c3=O)c3ccccc3c2=O)c(C)c1", "Envelope glycoprotein gp160 (Human immunodeficiency virus 1)", 5.24]
]}

Record pIC50 for all entries; do not skip any.
1. O=C1NC(=S)N(c2ccc(F)cc2)C(=O)C1=Cc1ccco1
2. CC(C)(C)c1cc(-c2cs/c(=N\c3ccccc3)n2Cc2ccc(C(=O)O)cc2)cc(C(C)(C)C)c1O
3. O=c1/c(=C/c2cc([N+](=O)[O-])cc([N+](=O)[O-])c2O)sc2nc3ccccc3n12
4. COc1cc(/C=N/NS(=O)(=O)c2ccc3ccccc3c2)ccc1OCc1ccc(C(=O)O)cc1
5. COc1ccccc1NS(=O)(=O)c1cccc(-n2c(O)c(C=Nc3ccccc3C(=O)O)c3ccccc3c2=O)c1
6. CCC(Sc1nc2ccsc2c(=O)n1Cc1ccc(C(=O)O)cc1)C(=O)Nc1ccc(C)c(Cl)c1 (stereo not drawn)
7. O=C(O)CCCN1C(=O)/C(=C/c2ccc(-c3nc4ccccc4s3)o2)SC1=S

## Result
1. 5.00
2. 4.56
3. 5.58
4. 5.11
5. 5.02
6. 5.10
7. 5.75

## Task Name the recorded pIC50 for "Cc1ccc(-n2cccc2/C=C2/C(=N)N3C(=NC2=O)SN=C3S(C)(=O)=O)cc1Cl" .
## Result 5.24
